Test system: Quadruplex DNA
Assay: Binding affinity to human telomeric 23 G4 quadruplex DNA assessed as change in melting temperature at 10 molar equiv to DNA measured after 10 mins by circular dichroism melting analysis
Type: nucleic-acid assay
readout: ΔTm (°C)

>>> readout_value("CC(C)(C)Nc1c(-c2ccccc2F)nc2c3ncn(CCN4CCOCC4)c3ncn12")
0.7
>>> readout_value("CC(C)(C)Nc1c(-c2ccccc2F)nc2c3ncn(CCN4CCCC4)c3ncn12")
1.1
>>> readout_value("CC(C)(C)Nc1c(-c2ccccc2OCCN2CCCC2)nc2c3ncn(CCN4CCCC4)c3ncn12")
4.9
>>> readout_value("CC(C)(C)Nc1c(-c2ccc(Cl)cc2)nc2c3ncn(CCN4CCCC4)c3ncn12")
2.3
>>> readout_value("CC(C)(C)Nc1c(-c2ccc(N3CCOCC3)cc2)nc2c3ncn(CCN4CCCC4)c3ncn12")
2.2
>>> readout_value("CC(C)(C)Nc1c(-c2ccc(Cl)cc2)nc2c3ncn(CCN4CCOCC4)c3ncn12")
0.3
>>> readout_value("CC(C)(C)Nc1c(-c2ccc(N3CCOCC3)cc2)nc2c3ncn(CCN4CCOCC4)c3ncn12")
1
>>> readout_value("CN(C)CCCn1cnc2c1ncn1c(NC(C)(C)C)c(-c3ccc(Cl)cc3)nc21")
2.4
>>> readout_value("CC(C)(C)Nc1c(-c2ccccc2OCCN2CCOCC2)nc2c3ncn(CCN4CCOCC4)c3ncn12")
0.1
